Just for reference, PubChem BioAssay (NCI) is where these values come from.

# Test system: MOLT-4 leukemia
# experiment: NCI-60 one-dose screen, 48 h (100 = growth as untreated, 0 = no growth, -100 = all killed)
# runParameters: 10 µM unless noted
# Method: Growth inhibition of the MOLT-4 human tumor cell line is measured as a screen for anti-cancer activity. Cells are grown in 96 well plates and exposed to the test compound for 48 hours. Compounds are tested at a single concentration, which is 10^-5 M for most compounds. The reported endpoint is percent growth (GI% or GIPRCNT), where numbers from 0 - 100% represent growth inhibition, and numbers from -100% - 0 represent cell death. For example, a value of 40 represents 60% growth inhibition. […]
About 83,000 compounds went through this panel and 20% of them were active in at least one assay; those are over-represented in the sample as a whole. Active and inactive are the calls of the source. How the source made its calls: active means growth percent below 10; inactive means the rest.
Hi there, I'd appreciate the recorded growth for every entry that follows.

Sample records with growth:
1. CCN(CC)CCCC(C)Nc1ccnc2cc(Cl)c(SCc3ccccc3)cc12 (stereo not drawn) ... -29.3% (active)
2. CC1(C)CC[C@]2(C(=O)O)CC[C@]3(C)C(=CC[C@@H]4[C@@]5(C)C/C(=C/c6ccco6)C(=O)C(C)(C)[C@@H]5CC[C@]43C)[C@@H]2C1 ... 2.21% [100 µM] (active)

Read the next record carefully.
# input // lookup growth for O=C(Nc1cccnc1)c1ccc2ccc3ccc(C(=O)Nc4cccnc4)nc3c2n1
# output 32.1% (inactive)

* * *

# Test system: SK-MEL-5 melanoma
# experiment: NCI-60 one-dose screen, 48 h (100 = growth as untreated, 0 = no growth, -100 = all killed)
# runParameters: 10 µM unless noted
# Description: Growth inhibition of the SK-MEL-5 human tumor cell line is measured as a screen for anti-cancer activity. Cells are grown in 96 well plates and exposed to the test compound for 48 hours. Compounds are tested at a single concentration, which is 10^-5 M for most compounds. The reported endpoint is percent growth (GI% or GIPRCNT), where numbers from 0 - 100% represent growth inhibition, and numbers from -100% - 0 represent cell death. For example, a value of 40 represents 60% growth inhibition. […]
About 83,000 compounds went through this panel and 20% of them were active in at least one assay; those are over-represented in the sample as a whole.
Rule: TRUE for growth not less than 80%, FALSE for anything less.

1. c1ccc(-c2nnc(-c3c[nH]c4ncccc34)s2)cc1 ... TRUE
2. COc1ccccc1S(=O)Nc1ccccc1 (configuration not stated) ... TRUE
3. COc1ccc2nc3c(cc2c1)C(=O)CC(C(F)(F)F)C3 (configuration not stated) ... FALSE
4. CN(C)c1cc(NN=C(c2ccc(O)cc2)c2ccc(O)cc2)c([N+](=O)[O-])cc1[N+](=O)[O-] ... FALSE
5. O=C1NC(=O)C(Cc2ccc(OCc3ccc(-c4cc(F)c(F)c(F)c4)cc3)cc2)S1 (configuration not stated) ... FALSE
6. N=C(N)c1ccc(-c2ccc(-c3ccc(-c4cccs4)s3)s2)cc1F ... TRUE

Moving on to the next molecule.
# input Textbook exercise: given the entry Cc1cc(N2CCCCCC2)nc(N2CCN(CC(=O)Nc3ccc4c(ccn4Cc4ccccc4)c3)CC2)n1 , state whether its growth is greater than or equal to 80%.
# output FALSE

* * *

# Test system: NCI-H322M lung
# experiment: NCI-60 one-dose screen, 48 h
# runParameters: 10 µM unless noted
# Method: Growth inhibition of the NCI-H322M human Non-Small Cell Lung tumor cell line is measured as a screen for anti-cancer activity. Cells are grown in 96 well plates and exposed to the test compound for 48 hours. Compounds are tested at a single concentration, which is 10^-5 M for most compounds. The reported endpoint is percent growth (GI% or GIPRCNT), where numbers from 0 - 100% represent growth inhibition, and numbers from -100% - 0 represent cell death. […]
This is part of a sample that, as a whole, favours compounds with a hit. Of some 83,000 tested, about 20% had one in any assay. Activity calls are given as the source filed them. The calls were made as follows: active = growth percent below 10; inactive = the rest.
Select the matching outcome among label 1 = active, label 0 = inactive

1. CC(C)(C)c1cc(C(=O)Nc2ccccc2C(=O)NCCN)cc(C(C)(C)C)c1 ... label 0
2. COc1cc(/C=C/C(=O)/C=C/c2ccc(-n3ccnc3)cc2)ccc1O ... label 0
3. C=C(C)[C@@H]1CC[C@]2(C(=O)OC)CC[C@]3(C)[C@H](CC[C@@H]4[C@@](C)(CCc5nn[nH]n5)[C@H](C(=C)C)CC[C@]43C)[C@@H]12 ... label 1
4. CCOC(CNC(=O)c1cccc([N+](=O)[O-])c1)OCC ... label 0
5. CCOC(=O)c1ccc2nc(-c3c(C)nn(-c4ccccc4)c3N3CCOCC3)[nH]c2c1 ... label 0

# input Tell me the assay call for Cc1cc2c(C(C)C)c(O)c(O)c(C=NCc3ccoc3)c2c(O)c1-c1c(C)cc2c(C(C)C)c(O)c(O)c(C=NCc3ccco3)c2c1O please.
# output label 0

# input Now this one: O=C(NNc1ccc(-c2ccccc2)nn1)c1ccccc1
# output label 0

# input Now this one: C[C@@H]1C[C@H]2C(=O)O[C@@H](C)[C@H](NC(=O)[C@H](Cc3cc(F)cc(F)c3)NC(=O)Nc3ccc(Cl)cc3F)C(=O)N3C[C@H](O)C[C@H]3C(=O)N3CCN(C)C[C@H]3C(=O)N[C@@H](C)C(=O)N2C1
# output label 0

# input Now this one: COC(=O)[C@H](CC(C)C)NC(=O)NC(=O)NC(=O)CI
# output label 0

# input Now this one: CC(=O)OC[C@]12CC[C@@H]([C@@H](C)C(N)=O)[C@@H]1[C@H]1CC[C@@H]3[C@@]4(C)CC[C@H](OC(C)=O)C(C)(C)[C@@H]4CC[C@@]3(C)[C@]1(C)CC2
# output label 1

# input Now this one: CCOC(=O)c1c[nH]c2cc(OCC3CC3)c(OCC3CC3)cc2c1=O
# output label 0

# input Now this one: CC(C)c1ccc(C(=O)Nc2sc3c(c2C#N)CCC(=O)C3)cc1
# output label 0

# input Now this one: CN(C)Cc1ccc[nH]1
# output label 0

* * *

# Test system: HCC-2998 colon
# experiment: NCI-60 one-dose screen, 48 h (100 = growth as untreated, 0 = no growth, -100 = all killed)
# runParameters: 10 µM unless noted
Compounds without any hit were thinned out: in the full panel of roughly 83,000, 20% have a hit. Active and inactive are the calls of the source. Rule for the calls: active = growth percent below 10; inactive = the rest.
Hi there, I'd appreciate the recorded growth for every entry that follows.

Answer for every listed entry: what is its growth? The entries follow.
1. COC(=O)[C@H](CC(C)C)NC(=O)NC(=O)NC(=O)CI
2. CCN(CC)CCCCCCNc1cccc2cc(Br)cnc12
3. CCC(Br)(CC)C(=O)c1ccc(OCC(=O)O)c(Cl)c1Cl
4. COc1c(B(O)O)cccc1-c1nc2ccc3[nH]ncc3c2c2c1CCC2
5. Cn1cc(-c2noc(C(=O)c3cn(C)c4ncccc34)n2)c2ccccc21
6. COc1ccc(C2CC(c3cc(OC)c(OC)c(OC)c3)=NN2C(C)=O)cc1OCC(=O)Nc1nc2ccc(C(F)(F)F)cc2s1 (configuration not stated)
7. CC(C)C1=NOC(=O)C1=Cc1cn(-c2ccccc2)nc1-c1ccccc1

# output
1: 91.9% (inactive); 2: 88.3% (inactive); 3: 91.5% (inactive); 4: 88.8% (inactive); 5: 90.6% (inactive); 6: 92.3% (inactive); 7: 91.8% (inactive)

* * *

# Test system: CAKI-1 renal
# experiment: NCI-60 one-dose screen, 48 h
# runParameters: 10 µM unless noted
# Protocol: Growth inhibition of the CAKI-1 human tumor cell line is measured as a screen for anti-cancer activity. Cells are grown in 96 well plates and exposed to the test compound for 48 hours. Compounds are tested at a single concentration, which is 10^-5 M for most compounds. The reported endpoint is percent growth (GI% or GIPRCNT), where numbers from 0 - 100% represent growth inhibition, and numbers from -100% - 0 represent cell death. For example, a value of 40 represents 60% growth inhibition. […]
About 83,000 compounds went through this panel and 20% of them were active in at least one assay; those are over-represented in the sample as a whole. Calls of active or inactive are those of the source. How the source made its calls: active means growth percent below 10; inactive means the rest.
Select the matching outcome among 1 (yes) (active), 0 (no) (inactive)

Example entries and their recorded answers appear below.
1. CC(=O)OC[C@]12CC[C@@H]([C@@H](C)C(N)=O)[C@@H]1[C@H]1CC[C@@H]3[C@@]4(C)CC[C@H](OC(C)=O)C(C)(C)[C@@H]4CC[C@@]3(C)[C@]1(C)CC2 ... 1 (yes)
2. C=CCCC1(C)NC(=O)NC1=O (stereo not drawn) ... 0 (no)

Moving on to the next molecule.
# input Tell me the assay call for COc1ccc(/C=C(/C(=O)c2ccc(Cl)cc2)C(=O)C(F)(F)F)cc1 please.
# output 0 (no)

* * *

# Test system: SNB-75 CNS
# experiment: NCI-60 one-dose screen, 48 h
# runParameters: 10 µM unless noted
About 83,000 compounds went through this panel and 20% of them were active in at least one assay; those are over-represented in the sample as a whole. Calls of active or inactive are those of the source. How the source made its calls: active means growth percent below 10; inactive means the rest.
Select the matching outcome among 1.0 (active), 0.0 (inactive)

# input Tell me the assay call for C=C(C)[C@@H]1CC[C@]2(C(=O)NCCNCCNCCN)CC[C@]3(C)[C@H](CC[C@@H]4[C@@]5(C)CCC(=O)C(C)(C)[C@@H]5CC[C@]43C)[C@@H]12 please.
# output 1.0

# input Now this one: CCN1c2ccccc2C(Cl)(c2ccc(N(C)C)cc2)c2ccccc21
# output 0.0

# input Now this one: CCc1cccc(Cl)c1
# output 0.0
